Experiment: Cytotoxicity assay HEK293
Assay type: cell-based, human
Settings: human, HEK293 cells, mean (n = 2), read-out: Cyto. IC50 (concentration of compound at 50% cytotoxicity)
VALUE_KIND: pIC50
On this scale, pIC50 is minus log10 of a concentration expressed in M (mol/L).

Ask: Reported pIC50, compound O=C(NCCCNCCCCCCNCCCNC(=O)C(=O)c1c[nH]c2c(F)cccc12)C(=O)c1c[nH]c2c(F)cccc12.O=C(O)C(F)(F)F.O=C(O)C(F)(F)F [Compound 21a] : ____
Reply: 4.92

Ask: Reported pIC50, compound O=C(NCCCNCCCCCCCCCCCCNCCCNC(=O)C(=O)c1c[nH]c2ccccc12)C(=O)c1c[nH]c2ccccc12 [Compound 17e] : ____
Reply: 5.25

Ask: Reported pIC50, compound CC/C(=C(\c1ccccc1)c1ccc(OCCN(C)C)cc1)c1ccccc1 [tamoxifen, reference compound] : ____
Reply: 4.62

Ask: Reported pIC50, compound O=C(NCCCNCCCCCCNCCCNC(=O)C(=O)c1c[nH]c2ccc(Br)cc12)C(=O)c1c[nH]c2ccc(Br)cc12.O=C(O)C(F)(F)F.O=C(O)C(F)(F)F [Compound 18a] : ____
Reply: 5.05

###

System: E. coli ATCC 25922
Response field label: string, one of rule met (MIC strictly below 30 µM) or rule not met.

Ask: Just wondering, is MIC of O=C(NCCCNCCCCCCCCCCCCNCCCNC(=O)C(=O)c1c[nH]c2ccccc12)C(=O)c1c[nH]c2ccccc12 [Compound 17e] below 30 µM?
Reply: rule not met

Ask: Just wondering, is MIC of COc1cccc2c(C(=O)C(=O)NCCCNCCCCCCCCNCCCNC(=O)C(=O)c3c[nH]c4c(OC)cccc34)c[nH]c12 [Compound 22c] below 30 µM?
Reply: rule not met

Ask: Just wondering, is MIC of Cc1ccc2[nH]cc(C(=O)C(=O)NCCCNCCCCCCCNCCCNC(=O)C(=O)c3c[nH]c4ccc(C)cc34)c2c1.O=C(O)C(F)(F)F.O=C(O)C(F)(F)F [Compound 20b] below 30 µM?
Reply: rule not met

Ask: Just wondering, is MIC of Cc1cccc2c(C(=O)C(=O)NCCCNCCCCCCCCNCCCNC(=O)C(=O)c3c[nH]c4c(C)cccc34)c[nH]c12.O=C(O)C(F)(F)F.O=C(O)C(F)(F)F [Compound 23c] below 30 µM?
Reply: rule met

Ask: Just wondering, is MIC of Cc1ccc2[nH]cc(C(=O)C(=O)NCCCNCCCCCCCCNCCCNC(=O)C(=O)c3c[nH]c4ccc(C)cc34)c2c1.O=C(O)C(F)(F)F.O=C(O)C(F)(F)F [Compound 20c] below 30 µM?
Reply: rule met

Ask: Just wondering, is MIC of O=C(NCCCNCCCCCCNCCCNC(=O)C(=O)c1c[nH]c2ccc(Br)cc12)C(=O)c1c[nH]c2ccc(Br)cc12.O=C(O)C(F)(F)F.O=C(O)C(F)(F)F [Compound 18a] below 30 µM?
Reply: rule met

Ask: Just wondering, is MIC of COc1ccc2[nH]cc(C(=O)C(=O)NCCCNCCCCCCCCCCNCCCNC(=O)C(=O)c3c[nH]c4ccc(OC)cc34)c2c1.O=C(O)C(F)(F)F.O=C(O)C(F)(F)F [Compound 19d] below 30 µM?
Reply: rule not met

Ask: Just wondering, is MIC of Cc1cccc2c(C(=O)C(=O)NCCCNCCCCCCCCCCCCNCCCNC(=O)C(=O)c3c[nH]c4c(C)cccc34)c[nH]c12.O=C(O)C(F)(F)F.O=C(O)C(F)(F)F [Compound 23e] below 30 µM?
Reply: rule met

Ask: Just wondering, is MIC of COc1cccc2c(C(=O)C(=O)NCCCNCCCCCCNCCCNC(=O)C(=O)c3c[nH]c4c(OC)cccc34)c[nH]c12.O=C(O)C(F)(F)F.O=C(O)C(F)(F)F [Compound 22a] below 30 µM?
Reply: rule not met

Ask: Just wondering, is MIC of Cc1cccc2c(C(=O)C(=O)NCCCNCCCCCCNCCCNC(=O)C(=O)c3c[nH]c4c(C)cccc34)c[nH]c12.O=C(O)C(F)(F)F.O=C(O)C(F)(F)F [Compound 23a] below 30 µM?
Reply: rule not met
